Data credit: ChEMBL document CHEMBL5528066

test: Drug concentration in female Sprague-Dawley rat lung at 45 mg/kg, po measured after 8 hrs by LC-MS/MS analysis; format: ADME, organism-based; details: read-out: Ct
MEASURE: concentration at 8 h (ng/g)

                                   compound  readout_value
0  N#CC1(C(=O)NCCC2CCN(Cc3ccccc3)CC2)CC2(Br)c3ccccc3C1c1ccccc12 (racemic)           6360

----------
tested on: LN-229; assay: Inhibition of sphere formation in human LN-229 cells incubated for 168 hrs by microscopic analysis; assay type: functional, cell-based; settings: LN-229, 168 h
MEASURE: IC50 (nM)

In [3]: df
Out[3]:
                                   molecule  subject_of_test  unit_info  readout_value
0  N#CC1(C(=O)NCCC2CCN(Cc3ccccc3)CC2)CC2(Br)c3ccccc3C1c1ccccc12 (racemic)           LN-229         nM           1230
